Source of measurements: ChEMBL document CHEMBL1201862

- Target: Voltage-dependent T-type calcium channel subunit alpha-1H (Homo sapiens);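 note: channel activity triggered by adding a high calcium stimulation buffer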
- Sequence (O95180 whole entry): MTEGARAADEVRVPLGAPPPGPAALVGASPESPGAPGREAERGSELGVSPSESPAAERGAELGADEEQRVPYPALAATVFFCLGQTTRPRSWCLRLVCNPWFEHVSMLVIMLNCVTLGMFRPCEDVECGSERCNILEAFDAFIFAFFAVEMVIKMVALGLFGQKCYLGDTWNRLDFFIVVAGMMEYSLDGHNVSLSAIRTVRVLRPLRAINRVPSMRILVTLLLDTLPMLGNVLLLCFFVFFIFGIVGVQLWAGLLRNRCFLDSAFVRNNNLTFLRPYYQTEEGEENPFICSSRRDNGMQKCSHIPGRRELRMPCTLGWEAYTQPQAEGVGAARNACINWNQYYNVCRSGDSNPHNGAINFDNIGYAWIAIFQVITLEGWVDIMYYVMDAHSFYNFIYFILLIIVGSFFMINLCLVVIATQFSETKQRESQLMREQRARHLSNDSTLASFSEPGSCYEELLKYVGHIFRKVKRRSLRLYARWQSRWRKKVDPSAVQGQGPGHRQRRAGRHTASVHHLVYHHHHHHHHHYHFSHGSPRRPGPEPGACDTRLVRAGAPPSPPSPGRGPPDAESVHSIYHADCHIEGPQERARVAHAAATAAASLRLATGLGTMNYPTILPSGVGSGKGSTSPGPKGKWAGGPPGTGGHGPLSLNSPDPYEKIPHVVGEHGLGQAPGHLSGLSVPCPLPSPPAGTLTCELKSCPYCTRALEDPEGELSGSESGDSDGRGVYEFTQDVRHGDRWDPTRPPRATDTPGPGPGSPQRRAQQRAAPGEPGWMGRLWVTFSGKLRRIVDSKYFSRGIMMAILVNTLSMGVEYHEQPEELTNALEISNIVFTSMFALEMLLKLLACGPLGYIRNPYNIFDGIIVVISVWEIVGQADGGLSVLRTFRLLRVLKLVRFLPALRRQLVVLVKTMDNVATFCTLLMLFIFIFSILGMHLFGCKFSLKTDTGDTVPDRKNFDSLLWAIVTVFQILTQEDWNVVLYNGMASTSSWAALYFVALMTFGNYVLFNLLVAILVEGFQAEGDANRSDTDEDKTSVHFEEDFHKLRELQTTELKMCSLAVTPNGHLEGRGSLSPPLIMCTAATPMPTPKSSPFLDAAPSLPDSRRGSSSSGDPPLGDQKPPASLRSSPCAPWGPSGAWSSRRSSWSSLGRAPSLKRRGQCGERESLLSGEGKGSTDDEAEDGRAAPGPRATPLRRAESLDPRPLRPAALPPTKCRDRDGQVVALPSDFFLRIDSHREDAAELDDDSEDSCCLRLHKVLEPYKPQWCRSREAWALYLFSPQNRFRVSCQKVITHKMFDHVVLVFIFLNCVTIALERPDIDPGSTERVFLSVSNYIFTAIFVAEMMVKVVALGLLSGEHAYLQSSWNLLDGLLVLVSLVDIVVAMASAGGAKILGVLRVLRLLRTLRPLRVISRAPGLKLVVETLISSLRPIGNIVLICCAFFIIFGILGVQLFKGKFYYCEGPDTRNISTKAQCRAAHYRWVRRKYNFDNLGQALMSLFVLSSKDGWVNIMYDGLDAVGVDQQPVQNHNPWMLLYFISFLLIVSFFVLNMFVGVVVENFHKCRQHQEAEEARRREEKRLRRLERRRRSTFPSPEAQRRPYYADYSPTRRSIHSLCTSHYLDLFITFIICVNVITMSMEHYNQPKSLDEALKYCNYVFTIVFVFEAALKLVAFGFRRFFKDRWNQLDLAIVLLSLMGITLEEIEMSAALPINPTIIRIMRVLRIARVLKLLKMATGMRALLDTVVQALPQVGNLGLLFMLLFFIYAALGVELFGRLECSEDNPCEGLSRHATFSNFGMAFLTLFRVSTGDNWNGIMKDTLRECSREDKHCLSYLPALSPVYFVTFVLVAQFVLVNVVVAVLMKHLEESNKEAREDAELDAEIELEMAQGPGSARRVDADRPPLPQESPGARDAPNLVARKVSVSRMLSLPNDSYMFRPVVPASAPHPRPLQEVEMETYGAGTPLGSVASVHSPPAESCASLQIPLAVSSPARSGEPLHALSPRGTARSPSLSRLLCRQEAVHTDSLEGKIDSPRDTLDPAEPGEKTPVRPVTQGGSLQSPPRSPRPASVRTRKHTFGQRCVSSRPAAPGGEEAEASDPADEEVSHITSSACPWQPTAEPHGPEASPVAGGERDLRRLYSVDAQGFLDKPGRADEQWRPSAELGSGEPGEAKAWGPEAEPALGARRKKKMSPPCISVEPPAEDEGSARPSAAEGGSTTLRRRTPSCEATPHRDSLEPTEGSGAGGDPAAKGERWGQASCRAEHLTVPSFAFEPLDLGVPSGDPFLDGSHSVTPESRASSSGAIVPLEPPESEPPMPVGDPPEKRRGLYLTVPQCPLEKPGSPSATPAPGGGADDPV
- Type: functional
Active and inactive are the calls of the source.
Property: EC50

Qu. Given CCCCN(CC)S(=O)(=O)c1ccc(C(=O)Nc2nnc(-c3cccs3)o2)cc1 , report its EC50 on Voltage-dependent T-type calcium channel subunit alpha-1H (Homo sapiens).
Ans. 2.67 µM (active)

Qu. Report EC50 on Voltage-dependent T-type calcium channel subunit alpha-1H (Homo sapiens) for this entry: Cc1cccc(-c2noc(CN(C(=O)c3ccc4c(c3)OCO4)C(C)C)n2)c1
Ans. 8.31 µM (active)

Qu. GET EC50 where system = Voltage-dependent T-type calcium channel subunit alpha-1H (Homo sapiens) and item = O=C(OCc1nc2ccccc2s1)c1cccs1;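 note: channel activity triggered by adding a high calcium stimulation buffer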
Ans. 12.2 µM (active)

Qu. Tell me its EC50 on Voltage-dependent T-type calcium channel subunit alpha-1H (Homo sapiens): CCC(C)(C)n1nnnc1C(c1ccc(C)cc1)N1CCN(Cc2ccc3c(c2)OCO3)CC1 (stereo unspecified)
Ans. 6.68 µM (active)

Qu. Print Voltage-dependent T-type calcium channel subunit alpha-1H (Homo sapiens) EC50 for CCN(Cc1ccccc1)C(c1ccccn1)c1nnnn1C1CCCCC1 (stereo unspecified) .
Ans. 3.93 µM (active)

Qu. Report EC50 from Voltage-dependent T-type calcium channel subunit alpha-1H (Homo sapiens) testing of Cn1cc(C(=O)c2ccc(Cl)cc2Cl)cc1C(=O)NN=C(N)COc1cccc(C(F)(F)F)c1
Ans. 2.61 µM (active)

###

- Target: Trace amine-associated receptor 1 (Homo sapiens, UniProt Q96RJ0);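 note: inhibition of calcium response to PEA at EC80 in Galpha16 coupled cells measured by Fluo-8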
- Sequence (Q96RJ0 whole entry): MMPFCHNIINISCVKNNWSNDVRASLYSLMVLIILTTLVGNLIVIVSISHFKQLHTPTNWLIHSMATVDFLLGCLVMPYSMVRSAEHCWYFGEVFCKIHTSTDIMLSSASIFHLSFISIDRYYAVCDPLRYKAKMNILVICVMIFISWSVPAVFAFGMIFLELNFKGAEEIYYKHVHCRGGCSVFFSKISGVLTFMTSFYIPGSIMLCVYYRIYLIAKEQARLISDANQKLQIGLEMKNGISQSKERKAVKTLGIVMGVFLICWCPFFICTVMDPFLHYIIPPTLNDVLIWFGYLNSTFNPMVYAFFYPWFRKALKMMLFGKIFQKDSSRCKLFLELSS
- Assay text: Counterscreen for agonists of the human trace amine associated receptor 1 (hTAAR1): Fluorescence-based cell-based high throughput dose response assay to identify hTAAR1 agonist that also desensitize TAAR1 receptor response.
- Assay type: functional
Counter-ions that a name gives are not always drawn. The source made the active and inactive calls.
Answer with one of the outcomes active, inactive

Qu. Would you mind telling me which call this test gave O=C(NCCc1ccc(O)cc1)c1[nH]c(C(F)(F)F)nc1-c1ccccc1 ?
Ans. active

Qu. What outcome does the record of this test show for CC1CCCN(C(=S)SCC(=O)c2cc(Br)cc(Br)c2O)C1 (stereo not given) ?
Ans. active

Qu. Tell me the recorded outcome of this test for O=C(O)C1C2C=CC(C2)C1C(=O)NCCC1=CCCCC1 (stereo not given) .
Ans. inactive

Qu. Recorded call for CCOC(=O)[C@]12CCCC=C1N(CCC1=CCCCC1)C(=O)[C@H](CC(=O)NCCc1ccccc1OC)C2 ?
Ans. active

Qu. How did this test come out for Oc1ccc(C2CNCCc3c2cc(O)c(O)c3Cl)cc1 (stereo not given) [FENOLDOPAM MESYLATE] ?
Ans. active

###

I'd appreciate it if you could supply AC50 values for the items below.
- Target: DNA repair and recombination protein RAD54-like (Homo sapiens)
- Sequence (Q92698 whole entry): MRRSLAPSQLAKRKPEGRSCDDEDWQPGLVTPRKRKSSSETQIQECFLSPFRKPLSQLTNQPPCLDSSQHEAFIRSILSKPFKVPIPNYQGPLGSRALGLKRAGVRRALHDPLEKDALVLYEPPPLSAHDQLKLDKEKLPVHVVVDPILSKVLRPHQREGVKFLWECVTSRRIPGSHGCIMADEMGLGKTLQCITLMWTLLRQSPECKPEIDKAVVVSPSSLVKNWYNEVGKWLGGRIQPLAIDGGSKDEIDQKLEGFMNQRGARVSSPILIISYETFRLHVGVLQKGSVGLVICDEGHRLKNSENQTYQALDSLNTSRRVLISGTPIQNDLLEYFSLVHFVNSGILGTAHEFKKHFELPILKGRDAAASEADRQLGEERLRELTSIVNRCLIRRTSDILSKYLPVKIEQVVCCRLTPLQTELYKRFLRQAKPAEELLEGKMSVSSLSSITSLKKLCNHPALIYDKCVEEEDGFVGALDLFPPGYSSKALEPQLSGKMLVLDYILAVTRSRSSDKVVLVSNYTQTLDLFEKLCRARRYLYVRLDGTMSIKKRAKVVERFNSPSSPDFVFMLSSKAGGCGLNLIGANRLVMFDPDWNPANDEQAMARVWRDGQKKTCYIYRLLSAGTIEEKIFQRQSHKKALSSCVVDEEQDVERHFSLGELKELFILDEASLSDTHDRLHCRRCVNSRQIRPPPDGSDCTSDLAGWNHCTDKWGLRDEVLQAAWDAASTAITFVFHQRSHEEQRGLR
- Assay text: RAD54 Holliday junction migration blockers – biochemical, fluorescence, cherry-picked samples, dose series, confirmation (AID 651657)
- Type: functional
Calls of active or inactive are those of the source.

Qu. Return AC50 (reported value) for this molecule: CCOc1cc2[nH]c(=O)n(Cc3ccc(C(=O)NCCCN4CCC(C)CC4)cc3)c(=O)c2cc1OCC
Ans. 55.9 µM (active)

Qu. In one line, give reported AC50 of the entry Cc1cccn2c(=O)c3cc(C(=O)NCC4CCCO4)c(=N)n(C4CCCCC4)c3nc12 (stereo not given) .
Ans. 56 µM (active)

Qu. State its AC50 for this molecule: CCCN(CCC)CCCN=C(S)Nc1ccc2nc(N3CCCC3)cc(C)c2c1
Ans. 19.4 µM (active)

Qu. Read the entry COc1ccccc1Nc1nc(NCC2CCCO2)c2ccccc2n1 (stereo not given) and write its reported AC50.
Ans. 81.9 µM (active)

Qu. Please give the documented AC50 of CCn1c(=N)c(C(=O)NCCCOC)cc2c(=O)n3cccc(C)c3nc21
Ans. 33.6 µM (active)

###

- Assay text: Luminescence Cell-Based Dose Response HTS to Identify Inhibitors of 5'UTR Stem-Loop Driven Prion Protein mRNA Translation in H4 Neuroglioblastoma Cells. [Related pubchem assays: 1827 (Project Summary), 1813 (Primary HTS)]
- Type: functional
The source made the active and inactive calls.
Property: EC50

Qu. Item Cc1cccc(CN2C(=O)/C(=C\c3ccc(C(=O)NCCCN4CCN(C)CC4)cc3)Oc3ccccc32)c1 : provide EC50
Ans. > 120 µM (not active)

Qu. Tell us which EC50 value is on record for CCOC(=O)C1CCCCN1C(=O)CCc1c(C)nc2cc(-c3ccccc3)nn2c1C (stereo not given)
Ans. 11.1 µM (active)

Qu. Specify reported EC50 for the compound shown: COc1ccc(C(=O)c2c(C(F)(F)F)oc3c2C(=O)c2ccccc2C3=O)cc1OC
Ans. > 120 µM (not active)

Qu. Supply recorded EC50 for CC(C)COCc1ccc(O)c2ncccc12 here.
Ans. 10.9 µM (active)

Qu. For the compound O=C(Nc1ccc(-c2nc3ccccc3s2)cc1)C1=COCCO1 , give its measured EC50 value.
Ans. 5.8 µM (active)

###

- Assay text: NIH3T3 cell viability loss – ATP luminescence, mouse fibroblasts, counter-screen, dose response (AID 2010);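 note: cells exposed to compound for about 90 hours before reading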
- Assay type: functional, cell-based
Activity calls are given as the source filed them.
Please go through the items and note down their EC50.

Qu. Provide measured EC50 value, entry: COc1ccc(/C=C2\SC(=S)N(CCCC(=O)N3CCN(C)CC3)C2=O)cc1
Ans. 8.7 µM (active)

Qu. Consider the molecule CCCC(NCC(O)COc1ccc(-c2ccccc2)cc1)c1ccccc1 (stereo not drawn) . State its measured EC50.
Ans. 17.6 µM (active)

Qu. Assign EC50 to the following record: COc1ccc(CCN(C)CCC(=O)Nc2ccc(C)cc2)cc1OC
Ans. > 60 µM (not active)

Qu. Give recorded EC50. O=C(CC(Sc1ccc(Br)cc1)C(=O)O)c1ccc(F)cc1 (stereo not drawn)
Ans. > 30 µM (not active)

Qu. Note EC50 for the molecule shown: Nc1ccc(Cl)c(S(=O)(=O)Nc2ccc(Cl)cc2)c1
Ans. > 60 µM (not active)

Qu. Please supply the value of reported EC50 for the item C/C(=N\Nc1cc(N2CCCCC2)nc(C)n1)c1ccc(Br)cc1
Ans. > 60 µM (not active)

Qu. Hello, please tell me recorded EC50 for this one: O=C(N/N=C/c1ccccc1F)NC12CC3CC(CC(C3)C1)C2
Ans. > 30 µM (not active)

Qu. Give EC50 for the following molecule: Nc1nc(Cl)cc(N2CCC(c3cc(-c4ccc(Cl)cc4)[nH]n3)CC2)n1
Ans. 7.5 µM (active)

###

- Target: Dual specificity tyrosine-phosphorylation-regulated kinase 1A (Rattus norvegicus, UniProt Q63470)
- Type: biochemical, Homo sapiens
The source made the active and inactive calls.
Property: AC50

Qu. Please report the measured AC50 for O=C1N=C(NS(=O)(=O)Cc2ccccc2)S/C1=C/c1ccc2c(c1)OCO2
Ans. 2.56 µM (active)

Qu. Provide measured AC50 value, entry: COc1ccc(C(=O)c2sc(Nc3ccccc3F)nc2N)cc1
Ans. 1.63 µM (active)

Qu. Report measured AC50; entry is CC(=O)Oc1ccc2c(c1)C(=O)c1ccccc1C2=O
Ans. 36.2 µM (active)

Qu. Supply recorded AC50 for CCN(CC)CCn1c2ccccc2c(=O)c2c(O)ccc(O)c21 here.
Ans. 3.16 µM (active)
